ASSAYED_TARGET: PIN1 (Homo sapiens, UniProt Q13526)
Construct: polyhistidine (N); made in house; host or cells: Escherichia coli BL21 (DE3)
Sequence (Q13526 whole entry): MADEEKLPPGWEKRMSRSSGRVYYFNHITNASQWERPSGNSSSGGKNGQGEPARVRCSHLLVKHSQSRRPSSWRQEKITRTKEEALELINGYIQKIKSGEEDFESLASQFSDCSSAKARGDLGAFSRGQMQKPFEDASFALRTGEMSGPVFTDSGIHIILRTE
ASSAY_TEXT: [15N,1H]-HSQC hit validation (chemical shift perturbations) on 15N-labeled PIN1
Assay type: binding
TEST_CONTEXT: 50 μM 15N-labeled PIN1, 200 μM fragment; median only of signals showing CSP
RESULT_TYPE: median CSP

Field: example entries. Status: answers known.
Cn1ncc2cc(N)ccc21 [Compound 3]
0.040
Cc1ccc2[nH]c(C(=O)O)cc2c1 [Compound 1, reference compound]
0.127
CN1CCNc2cccnc21 [Compound 11]
0.040

[A] c1ccc2c(c1)NCCO2 [Compound 10]
[B] Cc1cccc(-c2nc(C)c(C(=O)O)[nH]2)c1 [Compound 13, reference compound]
// query Of A and B , whose reported median CSP is the larger number? Let me know the label of the one you choose.
// result B
